molecular target: Adenosine receptor A1 (Homo sapiens); assay: Forskolin-induced cAMP production at human Adenosine A1 receptor; assay type: functional
I'd appreciate it if you could supply Production values for the items below.
The answer should read as a number with its unit following.

Record request: Production value, item "O=C(CCCc1cccs1)N[C@@H]1[C@@H](O)[C@H](n2cnc3c(NC4CCCC4)ncnc32)O[C@@H]1CO"
152%

Next: "Cc1ccc(C(=O)N[C@@H]2[C@@H](O)[C@H](n3cnc4c(NC5CCCC5)ncnc43)O[C@@H]2CO)cc1F"
135%

"O=C(N[C@@H]1[C@@H](O)[C@H](n2cnc3c(NC4CCCC4)ncnc32)O[C@@H]1CO)c1ccc2c(c1)OCO2" , same question.
126%

Then C[C@H]1O[C@@H](n2cnc3c(NC4CCCC4)ncnc32)[C@H](O)[C@H]1NC(=O)C1CCCC[C@H]1C(=O)c1cccs1 (some centres not stated) ?
182%

Next record, please: "CCCn1c(=O)c2[nH]c(C3CCCC3)nc2n(CCC)c1=O"
157%

Would you kindly repeat that for "O=C(N[C@@H]1[C@@H](O)[C@H](n2cnc3c(NC4CCCC4)ncnc32)O[C@@H]1CO)c1ccc(F)c(Cl)c1" ?
125%

Cool, now "C[C@H]1O[C@@H](n2cnc3c(NC4CCCC4)ncnc32)[C@H](O)[C@H]1NC(=O)CCCc1cccs1"
148%
